Where do these numbers come from? They come from PubChem BioAssay AID248.

System: L1210 leukemia ip in BDF1 mice, survival T/C
Experiment: NCI In Vivo Anticancer Drug Screen. Data for tumor model L1210 Leukemia (intraperitoneal) in B6D2F1 (BDF1) mice
Conditions: endpoint: mean survival time; dose: 25.0 mg/kg/injection; schedule: Q01DX009 (ip); vehicle: Klucel (hydroxypropylcellulose) (HPC); higher = longer survival
Toxic doses and inconclusive results are not listed.
QUANTITY: T/C

Clc1ccc(C2c3ccccc3C[n+]3ccccc32)cc1 (centres undefined): 109 % of control
NNC(=O)c1ccc(Br)cc1: 93 % of control
CCS(=O)(=O)OCCCl: 94 % of control
COC(=O)c1ccccc1N=Nc1ccc(O)c(C(C)C)c1: 98 % of control
C=CCNC(=S)Nc1c(C)cc(C)cc1C: 97 % of control
CCOC(=O)C(C)(Cc1c(C)cc(C)c(CC(C)(C(=O)OCC)C(=O)OCC)c1C)C(=O)OCC: 95 % of control
CC(=O)c1csc2ccccc12: 101 % of control
Nc1cc[n+](-c2ccc([N+](=O)[O-])cc2[N+](=O)[O-])cc1: 100 % of control
COc1cc(Cl)ccc1NC(=O)Oc1ccccc1C(N)=O: 97 % of control
